Test system: Noggin (protein binding on small-molecule microarray)
Experiment: small molecules binding Noggin protein – biochemical, 635/667 nm fluorescence, primary screen (AID 1095);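 further: score merges 667 nm feature fluorescence with signal to noise over triplicate slides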
Details: 635 nm fluorescence, higher = more signal
experimental-endpoint: composite z-score

[[record]]
compound = "COCCOC(=O)N1C(=O)[C@@]2(c3cc(C#CCNC(N)=O)ccc31)[C@H](C(=O)N1CCCCCCC1)[C@H]1C(=O)O[C@H](c3ccccc3)[C@H](c3ccccc3)N1[C@@H]2c1ccc(OCCO)cc1"
experimental_endpoint = "composite z-score"
endpoint_result = 0.616

[[record]]
compound = "COCCCNC(=O)[C@]1(Cc2ccccc2)N=C(c2ccc(OCCCO)cc2)O[C@@H]1c1ccccc1N=[N+]=[N-]"
experimental_endpoint = "composite z-score"
endpoint_result = 1.67

[[record]]
compound = "CC(C)(C)OC(=O)CC[C@]1(C(=O)O)COC(c2ccc(OCCCO)cc2)=N1"
experimental_endpoint = "composite z-score"
endpoint_result = -1.09

[[record]]
compound = "CC(C)CNC(=O)[C@@]1(C)c2ccccc2C(=O)N(Cc2ccccc2)[C@H]1c1ccc(CO)cc1"
experimental_endpoint = "composite z-score"
endpoint_result = -1.79

[[record]]
compound = "COCCCNC(=O)[C@@]1(Cc2ccccc2)COC(c2ccc(OCCCO)cc2)=N1"
experimental_endpoint = "composite z-score"
endpoint_result = -0.233

[[record]]
compound = "COC(=O)[C@@]1(Cc2ccccc2)[C@H]2c3cc(C(=O)N(C)C)n(Cc4ccc(O)c(OC)c4)c3C[C@H]2CN1C(=O)c1ccccc1"
experimental_endpoint = "composite z-score"
endpoint_result = -0.372

[[record]]
compound = "COc1cc(NN2C(C(O)c3ccc(I)cc3)C=CC3C(=O)N(C)C(=O)C32)cc(OC)c1OC (stereo not drawn)"
experimental_endpoint = "composite z-score"
endpoint_result = -0.131

[[record]]
compound = "O=C1c2ccccc2[C@](Cc2ccccc2I)(C(=O)NCC(F)(F)F)[C@H](c2ccc(CO)cc2)N1Cc1ccccc1"
experimental_endpoint = "composite z-score"
endpoint_result = 0.444

[[record]]
compound = "C=C[C@H](C)[C@H](OC(=O)Nc1ccc(SC)cc1)c1ccc(O)c2ccccc12"
experimental_endpoint = "composite z-score"
endpoint_result = 0.174

[[record]]
compound = "CO[C@H]1O[C@H](CO)[C@@H](OC(=O)Nc2cccc(F)c2)[C@H](OC(=O)Nc2ccc3c(c2)OCO3)[C@H]1OC(=O)Nc1ccc2c(c1)OCO2"
experimental_endpoint = "composite z-score"
endpoint_result = 1.07

[[record]]
compound = "CC(C)CNC(=O)[C@@]1(c2ccc([N+](=O)[O-])cc2)CC(=O)N(C(C)C)[C@@H]1c1ccc(CO)cc1"
experimental_endpoint = "composite z-score"
endpoint_result = -0.641

[[record]]
compound = "COc1ccc(C#Cc2ccc3c(c2)[C@]2(C(=O)N3)[C@H](C(=O)O)[C@H]3C(=O)O[C@H](c4ccccc4)[C@H](c4ccccc4)N3[C@@H]2c2ccc(OCCO)cc2)cc1"
experimental_endpoint = "composite z-score"
endpoint_result = 1

[[record]]
compound = "COC(=O)C(CC#Cc1ccc2c(c1)[C@]1(C(=O)N2)[C@H](c2ccc(O)cc2)N2[C@H](c3ccccc3)[C@H](c3ccccc3)OC(=O)[C@H]2[C@@H]1C(=O)O)C(=O)OC"
experimental_endpoint = "composite z-score"
endpoint_result = 0.307

[[record]]
compound = "NC(=O)NCC#Cc1ccc2c(c1)[C@]1(C(=O)N2)[C@H](c2ccc(O)cc2)N2[C@H](c3ccccc3)[C@H](c3ccccc3)OC(=O)[C@H]2[C@@H]1C(N)=O"
experimental_endpoint = "composite z-score"
endpoint_result = -0.238

[[record]]
compound = "N#Cc1ccc(NN2C(C(O)c3ccccc3)C=CC3C(=O)N(c4ccccc4)C(=O)C32)cc1 (stereo not drawn)"
experimental_endpoint = "composite z-score"
endpoint_result = -0.229

[[record]]
compound = "CN(C)CCCCCCNC(=O)[C@@H]1C[C@@H]2C(=O)NCC(=O)N2[C@@H]1c1ccc(O)cc1"
experimental_endpoint = "composite z-score"
endpoint_result = 1.47

[[record]]
compound = "C=CCC(OC(C)=O)[C@@H]1[C@@H](N(Cc2ccc(-c3ccccc3)cc2)C(=O)Cc2ccc(OC)cc2)c2cc(OCCCO)ccc2N1C(=O)c1ccc(-c2ccccc2)cc1 (stereo partly drawn)"
experimental_endpoint = "composite z-score"
endpoint_result = -0.0829

[[record]]
compound = "[N-]=[N+]=Nc1ccccc1[C@H]1OC(c2ccc(OCCCO)cc2)=N[C@@]1(Cc1ccccc1)C(=O)NCc1ccccc1"
experimental_endpoint = "composite z-score"
endpoint_result = 0.641

[[record]]
compound = "C=C(CCCC)/C(=C/C[C@H](OC(=O)c1ccncc1)c1ccc(CO)o1)c1cc(C(=O)OC)ccc1OC"
experimental_endpoint = "composite z-score"
endpoint_result = 1

[[record]]
compound = "COC(=O)C(CC#Cc1ccc2c(c1)[C@]1(C(=O)N2)[C@H](c2ccc(OCCO)cc2)N2[C@H](c3ccccc3)[C@H](c3ccccc3)OC(=O)[C@H]2[C@@H]1C(=O)O)C(=O)OC"
experimental_endpoint = "composite z-score"
endpoint_result = 0.612

[[record]]
compound = "COc1ccc(C(=O)Nc2ccc(CN3C(=O)[C@]4(O[C@H](CCn5cc([C@H](O)c6ccccc6)nn5)[C@@H]([Si](C)(C)c5ccc(OC)cc5)[C@@H]4C)c4ccccc43)cc2)cc1"
experimental_endpoint = "composite z-score"
endpoint_result = 0.341

[[record]]
compound = "O=C1O[C@H](c2ccccc2)[C@H](c2ccccc2)N2[C@H]1[C@@H](C(=O)N1CCCCCCC1)[C@]1(C(=O)Nc3ccc(C#CCCO)cc31)[C@H]2c1ccc(OCCO)cc1"
experimental_endpoint = "composite z-score"
endpoint_result = 2.36

[[record]]
compound = "COC(=O)[C@]1(Cc2ccccc2N=[N+]=[N-])N=C(c2ccc(OCCCO)cc2)O[C@@H]1c1ccccc1"
experimental_endpoint = "composite z-score"
endpoint_result = -0.4

[[record]]
compound = "CC(C)NC(=O)[C@@]1(Cc2ccccc2I)c2ccccc2C(=O)N(Cc2ccccc2C(F)(F)F)[C@H]1c1ccc(CO)cc1"
experimental_endpoint = "composite z-score"
endpoint_result = 0.461

[[record]]
compound = "COC(=O)[C@@]1(Cc2ccc(OC)cc2)[C@H]2c3cc(C(=O)N(C)C)n(Cc4cc(F)c(F)c(F)c4)c3C[C@H]2CN1C(=O)c1ccccc1"
experimental_endpoint = "composite z-score"
endpoint_result = -0.217

[[record]]
compound = "CC(C)=CCCC(C)=CC(O)C1C=CC2C(=O)N(c3ccccc3)C(=O)C2N1Nc1ccc([N+](=O)[O-])cc1 (stereo not drawn)"
experimental_endpoint = "composite z-score"
endpoint_result = -0.14

[[record]]
compound = "O=C(O)[C@]1(CCS(=O)(=O)c2ccccc2)N=C(c2ccc(OCCCO)cc2)O[C@@H]1c1ccccc1"
experimental_endpoint = "composite z-score"
endpoint_result = -0.116

[[record]]
compound = "CC(C)C[C@@H]1NC(=O)[C@@H]2C[C@H](C(=O)NCCCC[N+](C)(C)C)[C@H](c3cccc(OCCO)c3)N2C1=O"
experimental_endpoint = "composite z-score"
endpoint_result = 1.84


###

Assay: S6 kinase pathway phospho-S6 level changes – cell-based, A549, cytoblot, luminescence, serum-stimulated, primary screen (AID 1158);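 further: serum-stimulated A549 lung adenocarcinoma cells; signal is phosphorylated S6 detected by cytoblot immunostaining with HRP secondary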
Conditions: 5 h, higher = more signal
experimental-endpoint: z-score

[[record]]
compound = "O=C1C2C=CC(C(O)c3ccccn3)N(Nc3ccccc3)C2C(=O)N1c1ccccc1 (stereo unspecified)"
experimental_endpoint = "z-score"
endpoint_result = -0.721

[[record]]
compound = "C[C@@H]1ON(c2ccccc2)[C@H](c2ccccc2)[C@H]1C(=O)N1C(=O)OC[C@H]1Cc1ccccc1"
experimental_endpoint = "z-score"
endpoint_result = 0.389

[[record]]
compound = "CC(C)(C)OC(=O)CC[C@@]1(C(=O)N2CCCCC2)N=C(c2ccc(OCCCO)cc2)O[C@@H]1c1ccccc1N=[N+]=[N-]"
experimental_endpoint = "z-score"
endpoint_result = -0.0394

[[record]]
compound = "[N-]=[N+]=Nc1ccccc1C[C@]1(C(=O)NCCN2CCOCC2)N=C(c2ccc(OCCCO)cc2)O[C@H]1c1ccccc1N=[N+]=[N-]"
experimental_endpoint = "z-score"
endpoint_result = 1.75

[[record]]
compound = "CC(C)N1CC=CC23O[C@@H]4C=CCOC(=O)[C@@H]4[C@H]2C(=O)N(CCCCCCO)[C@@H]3C1=O (stereo partly specified)"
experimental_endpoint = "z-score"
endpoint_result = -0.0596

[[record]]
compound = "C[C@]12C(=O)N(CCCCCO)[C@@H]3C(=O)N(c4ccc(Cl)cc4)CC=CC31O[C@@H]1/C=C\\CCCOC(=O)C12 (stereo partly specified)"
experimental_endpoint = "z-score"
endpoint_result = -0.58

[[record]]
compound = "O=C1C2C=CC(C(O)c3ccc(Br)cc3)N(Nc3ccccc3)C2C(=O)N1c1ccccc1 (stereo unspecified)"
experimental_endpoint = "z-score"
endpoint_result = -0.554

[[record]]
compound = "COc1ccccc1CN1C(=O)c2ccccc2[C@](Cc2ccccc2I)(C(=O)NCCN2CCOCC2)[C@@H]1c1ccc(CO)cc1"
experimental_endpoint = "z-score"
endpoint_result = 1.39

[[record]]
compound = "NC(=O)NCC#Cc1ccc2c(c1)[C@]1(C(=O)N2)[C@H](c2ccc(OCCO)cc2)N2[C@H](c3ccccc3)[C@H](c3ccccc3)OC(=O)[C@H]2[C@@H]1C(=O)N1CCCCCCC1"
experimental_endpoint = "z-score"
endpoint_result = -0.0231

[[record]]
compound = "COC(=O)[C@@]1(Cc2ccc(OC)cc2)[C@H]2c3cc(C(=O)N(C)C)n(CCF)c3C[C@H]2CN1C(=O)c1ccccc1"
experimental_endpoint = "z-score"
endpoint_result = -0.132

[[record]]
compound = "NCCCCCCNC(=O)[C@H]1C[C@H]2C(=O)N3CCC[C@H]3C(=O)N2[C@H]1c1ccc(O)cc1"
experimental_endpoint = "z-score"
endpoint_result = 0.648

[[record]]
compound = "COC(=O)[C@@]1(Cc2ccc(OC)cc2)[C@H]2c3cc(C(=O)N(C)C)n(Cc4cc(F)c(F)c(F)c4)c3C[C@H]2CN1C(=O)c1ccccc1"
experimental_endpoint = "z-score"
endpoint_result = 0.968

[[record]]
compound = "CCCCC(=C=CC[C@H](O)c1ccccc1OCCO)C[C@H](O)c1ccccn1"
experimental_endpoint = "z-score"
endpoint_result = 0.822

[[record]]
compound = "COc1cc(C(O)C2C=CC3C(=O)NC(=O)C3N2Nc2ccc(Cl)cc2Cl)cc(OC)c1OC (stereo unspecified)"
experimental_endpoint = "z-score"
endpoint_result = -0.778

[[record]]
compound = "O=C1c2ccccc2[C@](Cc2ccccc2I)(C(=O)NCC(F)(F)F)[C@H](c2ccc(CO)cc2)N1Cc1ccccc1"
experimental_endpoint = "z-score"
endpoint_result = -0.261

[[record]]
compound = "C=C(/C(=C/C[C@@H](OC(=O)c1ccncc1)c1ccccc1OCCO)c1cnc2ccccc2c1)C(C)C"
experimental_endpoint = "z-score"
endpoint_result = -0.174


This collection of values is drawn from PubChem BioAssay.
